- assayed target: 1-phosphatidylinositol 4,5-bisphosphate phosphodiesterase beta-3 (Homo sapiens) (UniProt Q01970)
- Sequence (Q01970 whole entry, looked up): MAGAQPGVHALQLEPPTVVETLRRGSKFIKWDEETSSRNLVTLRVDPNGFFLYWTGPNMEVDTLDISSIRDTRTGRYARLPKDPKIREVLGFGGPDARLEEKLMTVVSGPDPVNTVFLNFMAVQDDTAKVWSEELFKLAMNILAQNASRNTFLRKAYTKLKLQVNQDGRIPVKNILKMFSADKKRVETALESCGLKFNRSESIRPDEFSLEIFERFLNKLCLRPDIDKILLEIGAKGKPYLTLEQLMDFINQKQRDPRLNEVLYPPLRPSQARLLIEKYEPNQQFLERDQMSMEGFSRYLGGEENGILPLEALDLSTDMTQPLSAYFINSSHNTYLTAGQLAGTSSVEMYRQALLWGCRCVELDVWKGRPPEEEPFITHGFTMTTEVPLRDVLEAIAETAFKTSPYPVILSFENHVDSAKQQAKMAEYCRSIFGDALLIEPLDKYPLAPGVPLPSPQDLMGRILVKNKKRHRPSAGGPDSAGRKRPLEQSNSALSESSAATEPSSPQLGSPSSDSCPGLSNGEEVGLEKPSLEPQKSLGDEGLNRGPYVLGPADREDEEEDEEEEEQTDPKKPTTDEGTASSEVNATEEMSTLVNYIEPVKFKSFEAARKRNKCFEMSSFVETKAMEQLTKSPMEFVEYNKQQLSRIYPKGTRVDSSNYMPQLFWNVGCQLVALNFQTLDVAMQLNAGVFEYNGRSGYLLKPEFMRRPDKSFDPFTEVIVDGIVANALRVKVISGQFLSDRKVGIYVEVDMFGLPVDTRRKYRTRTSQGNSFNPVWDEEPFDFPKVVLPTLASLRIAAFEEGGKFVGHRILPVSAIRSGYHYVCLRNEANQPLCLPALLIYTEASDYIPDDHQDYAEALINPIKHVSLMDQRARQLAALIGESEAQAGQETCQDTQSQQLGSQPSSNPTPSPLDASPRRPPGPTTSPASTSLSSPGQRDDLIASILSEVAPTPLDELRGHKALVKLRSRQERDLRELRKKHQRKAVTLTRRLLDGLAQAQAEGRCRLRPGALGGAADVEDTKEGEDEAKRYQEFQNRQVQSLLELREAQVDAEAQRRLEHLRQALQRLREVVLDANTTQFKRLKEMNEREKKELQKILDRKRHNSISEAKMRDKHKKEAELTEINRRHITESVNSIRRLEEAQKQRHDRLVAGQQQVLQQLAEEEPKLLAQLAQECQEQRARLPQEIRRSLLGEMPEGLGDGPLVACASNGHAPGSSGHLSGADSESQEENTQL
- protocol summary: phospholipase C beta3 enzyme inhibition – biochemical, fluorescence, primary screen (AID 720704);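 also: 0% = median of compound wells on plate and 100% = full blocker control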
- condition details: Purified PLC-beta3, fluorogenic substrate, at 12.2 µM, stronger effect = higher value
About 660 (0.18%) of roughly 370,000 compounds were called active. Shown is part of a subset that was picked to be rich in actives.
quantity name: inhibition (%)

>>> value_reported("CC(C)(C)OC(=O)Nc1ccc([C@@H](NC(=O)OC(C)(C)C)C(=O)OC(C)(C)C)cc1")
6.19
>>> value_reported("Cc1cc(NC(=O)c2ccc(F)cc2)ccc1NC(=O)c1ccco1")
12.6
>>> value_reported("Cc1nnc(SCc2nc3ccccc3nc2C)s1")
2.42
>>> value_reported("CC(=O)NC(Cc1ccc(F)c(F)c1)C(=O)NC1CCN(C(=O)c2ccc(C)cc2)CC1 (stereo not given)")
-5.45
>>> value_reported("C/C(CC(O)(/C=N/O)c1ccccc1)=N\\O (stereo not given)")
3.84
>>> value_reported("CCn1cc(C(=O)NCCC(=O)NCCO)c(=O)c2cc3c(cc21)OCO3")
-11.8
>>> value_reported("O=C(NCCSc1ncc(-c2ccccc2)[nH]1)c1ccco1")
-6.81
>>> value_reported("CC1=C(C)C(=O)OC(C(C)C2CCC3C4CC=C5CC(OC6OC(COC7OC(CO)C(O)C(O)C7O)C(O)C(O)C6O)CC(O)C5(C)C4CCC23C)C1 (stereo not given)")
4.96
>>> value_reported("Cc1ccc(C)c(NC(=O)c2ccc(OC(=O)c3ccco3)cc2)c1")
-2.18
>>> value_reported("Nn1c(SCC(=O)N2c3ccccc3Sc3ccccc32)nnc1-c1n[nH]c2c1CCC2")
-2.4

----------
- assayed target: 1-phosphatidylinositol 4,5-bisphosphate phosphodiesterase beta-3 (Homo sapiens) (UniProt Q01970)
- protocol summary: phospholipase C beta3 enzyme inhibition – biochemical, fluorescence, primary screen (AID 720704);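 also: 0% = median of compound wells on plate and 100% = full blocker control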
- condition details: Purified PLC-beta3, fluorogenic substrate, at 12.2 µM
Among all 370,000 compounds or so, about 660 (0.18%) were called active. Cut-off read from the data, not from the text of the source: active = inhibition above about 11%; inactive = the rest. The full list was thinned out, with actives kept by preference.
Outcome codes: active, inactive

>>> assigned_label("Cc1ccc(C)c(NC(=O)C2CCCN2C(=O)OC(C)(C)C)c1 (stereo unspecified)")
"inactive"
>>> assigned_label("O=S(=O)(O)c1cc2onnc2c2ccccc12")
"inactive"
>>> assigned_label("Cc1cccc(C)c1NC(=O)C1CCCN1C(=O)OC(C)(C)C (stereo unspecified)")
"inactive"
>>> assigned_label("CCC[C@H]1CCCC/C=C\\CCCC(=O)OCCN1C(=O)OC(C)(C)C")
"active"
>>> assigned_label("O=C(CSc1ncn[nH]1)Nc1nc2c(F)c(F)c(F)cc2s1")
"inactive"
>>> assigned_label("CCOC(=O)c1cnc(-n2nc(C)cc2C)nc1NNc1cc(C)nc(-c2ccccc2)n1")
"inactive"

----------
- assayed target: 1-phosphatidylinositol 4,5-bisphosphate phosphodiesterase beta-3 (Homo sapiens)
- protocol summary: phospholipase C beta3 enzyme inhibition – biochemical, fluorescence, primary screen (AID 720704);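 also: 0% = median of compound wells on plate and 100% = full blocker control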
- condition details: Purified PLC-beta3, fluorogenic substrate, at 12.2 µM, stronger effect = higher value
Out of some 370,000 compounds screened, about 660 (0.18%) were called active. Many of the other results were omitted from the sample, so actives are more common in it than they were.
quantity name: inhibition (%)

>>> value_reported("Cc1cc(C)c(OCC(=O)N(Cc2cccs2)C2CCS(=O)(=O)C2)c(C)c1 (stereo not given)")
-6.39
>>> value_reported("CO/N=C(/CS(=O)(=O)c1ccc(Br)cc1)c1ccc(OC)cc1")
0.43
>>> value_reported("O=C1NC2(CCCCC2)N=C1c1ccccc1")
10
>>> value_reported("CCCCc1nc2ccccc2c(NC(=O)CN2CCN(C)CC2)c1CCC")
32
>>> value_reported("O=S1(=O)C[C@@H](N2CCN(CCO)CC2)[C@H](COCc2ccccc2)N1")
-7.43
